// read-out pIC50, gathered for Tyrosine-protein kinase JAK1 (Homo sapiens, UniProt P23458) from published studies
Hey, just a heads up that pIC50 is the negative log base 10 of the concentration in molar.

Illustrative cases are given below, each with its answer.
[[record]]
molecule = "Cc1cnc(NCCN2CCOCC2)nc1-c1cnn(CCC#N)c1"
study_system = "Tyrosine-protein kinase JAK1 (Homo sapiens, UniProt P23458)"
value_kind = "pIC50"
obs_value = 4.30

[[record]]
molecule = "C[C@@H](NC(=O)c1c[nH]c2ncc(C3CC3)nc12)C(=O)N1CCC(C#N)C1 (some centres undefined)"
study_system = "Tyrosine-protein kinase JAK1 (Homo sapiens, UniProt P23458)"
value_kind = "pIC50"
obs_value = 7.35


Look up and report measured pIC50 (Tyrosine-protein kinase JAK1 (Homo sapiens, UniProt P23458)) for the following molecule: N#C[C@]1(C2CC2)C(=O)N2C[C@H]1COCC(=O)NCCCc1cccc(n1)Nc1cc2ccn1
6.89
